# reported pIC50; entries follow
# System: P. falciparum D6
# measurementProtocol: In vitro antimalarial activity, 3H-hypoxanthine growth inhibition assay, D6 line
# Type: cell-based, Plasmodium falciparum
# measurementSetup: Plasmodium falciparum, D6, Erythrocyte, 96 h, Pf infected erythrocytes, D6 strain sensitive to chloroquine, mean ± SD of three independent experiments
Convention used: pIC50 is expressed as -log10 of the molar concentration.

molecule="CCOC(=O)[C@H](Cc1ccccc1)NP(=O)(COCC(OCCO)n1cnc2c(=O)[nH]c(N)nc21)N[C@@H](Cc1ccccc1)C(=O)OCC (mixture of isomers) [21b]" measurementname=pIC50 result=4.08
molecule="CCOC(=O)[C@H](Cc1ccccc1)NP(=O)(COCC(OCCO)n1cnc2c(=O)[nH]cnc21)N[C@@H](Cc1ccccc1)C(=O)OCC (stereo partly drawn) [21a]" measurementname=pIC50 result=4.47
molecule="CCOC(=O)[C@H](Cc1ccccc1)NP(=O)(COCCC(OCCCO)n1cnc2c(=O)[nH]cnc21)N[C@@H](Cc1ccccc1)C(=O)OCC (stereo partly drawn) [21e]" measurementname=pIC50 result=4.85

The value of pIC50 recorded for CCOC(=O)[C@H](Cc1ccccc1)NP(=O)(CCOCC(OCCO)n1cnc2c(=O)[nH]cnc21)N[C@@H](Cc1ccccc1)C(=O)OCC (stereo partly drawn) [21c] when tested on P. falciparum D6 reads 4.39

Considering CCOC(=O)[C@H](Cc1ccccc1)NP(=O)(COCCC(OCCCO)n1cnc2c(=O)[nH]c(N)nc21)N[C@@H](Cc1ccccc1)C(=O)OCC (stereo partly drawn) [21f] , its pIC50 with P. falciparum D6 was recorded as 4.89

Bench note, P. falciparum D6: entry CCOC(=O)[C@H](Cc1ccccc1)NP(=O)(CCOCC(OCCOCP(=O)(N[C@@H](Cc1ccccc1)C(=O)OCC)N[C@@H](Cc1ccccc1)C(=O)OCC)n1cnc2c(=O)[nH]cnc21)N[C@@H](Cc1ccccc1)C(=O)OCC (stereo partly drawn) [19a] , its pIC50 = 5.70

---

# System: P. falciparum D6
# measurementProtocol: In vitro antimalarial activity, 3H-hypoxanthine growth inhibition assay, D6 line
# Format: cell-based, Plasmodium falciparum
# measurementSetup: Plasmodium falciparum, D6, Erythrocyte, 96 h, Pf infected erythrocytes, D6 strain sensitive to chloroquine, mean ± SD of three independent experiments
measurementName: IC50 (µM)
State the answer as a number, implicitly in µM.

Below, 2 molecules whose answers are already recorded.
molecule="CCOC(=O)[C@H](Cc1ccccc1)NP(=O)(CCOCC(OCCO)n1cnc2c(=O)[nH]c(N)nc21)N[C@@H](Cc1ccccc1)C(=O)OCC (stereo partly drawn) [21d]" result=64
molecule="CCOC(=O)[C@H](Cc1ccccc1)NP(=O)(COCCC(OCCCO)n1ncc2c(=O)[nH]cnc21)N[C@@H](Cc1ccccc1)C(=O)OCC (stereo partly drawn) [21g]" result=11

CCOC(=O)[C@H](Cc1ccccc1)NP(=O)(CCOCC(OCCOCP(=O)(N[C@@H](Cc1ccccc1)C(=O)OCC)N[C@@H](Cc1ccccc1)C(=O)OCC)n1cnc2c(=O)[nH]c(N)nc21)N[C@@H](Cc1ccccc1)C(=O)OCC (mixture of isomers) [19b] has a reported IC50 of 4.3

---

# assayedTarget: PfHGXPRT (Plasmodium falciparum, UniProt P20035)
# Construct: made in house
# Sequence (P20035 whole entry): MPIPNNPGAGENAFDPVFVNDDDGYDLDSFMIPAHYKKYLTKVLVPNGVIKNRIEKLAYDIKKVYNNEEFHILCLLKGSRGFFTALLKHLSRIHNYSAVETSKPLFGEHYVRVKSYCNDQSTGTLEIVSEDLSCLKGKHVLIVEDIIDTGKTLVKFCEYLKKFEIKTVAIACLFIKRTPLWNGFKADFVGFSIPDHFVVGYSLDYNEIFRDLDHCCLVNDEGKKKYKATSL
# measurementProtocol: Determination of Ki values, PfHGXPRT
# Assay type: biochemical
# measurementSetup: 0.1 M Tris-HCl, 10 mM MgCl2, pH 7.4; guanine 60 μM, variable PRib-PP; mean ± SD of three independent experiments
# Procedure: The human and Pf enzymes were purified as described previously.^[ [7] ^, [26] ^] All assays were performed in 0.1 M Tris‐HCl, 10 mM MgCl2, pH 7.4. […] The K i was calculated using the equation, v o = Vmax.[S]o/[S]o + K m(app) and K m(app) = K m [1 + [I]/K i ].
measurementName: pKi
API: returns pKi as number; meaning -log10 of concentration in mol/L.

Some solved entries appear below for comparison.
compound="O=c1[nH]cnc2c1ncn2C(COCCP(=O)(O)O)OCCO (centres unmarked) [20c]" result=5.00
compound="Nc1nc2c(ncn2C(COCP(=O)(O)O)OCCO)c(=O)[nH]1 (centres unmarked) [20b]" result=5.30
compound="CCOC(COCCP(=O)(O)O)n1cnc2c(=O)[nH]c(N)nc21 (centres unmarked)" result=5.52
compound="O=c1[nH]cnc2c1ncn2C(COCCP(=O)(O)O)OCCOCP(=O)(O)O (centres unmarked) [18a]" result=5.30
compound="Nc1nc2c(ncn2C(COCCP(=O)(O)O)OCCOCP(=O)(O)O)c(=O)[nH]1 (centres unmarked) [18b]" result=6.00

Nc1nc2c(ncn2C(COCCP(=O)(O)O)OCCO)c(=O)[nH]1 (centres unmarked) [20d] yielded pKi of 6.40

// field: pKi; key: O=c1[nH]c(Cl)nc2c1ncn2C(COCCP(=O)(O)O)OCCO (centres unmarked) [20e] ; value = 4.30
